Exercise: for every item that follows, state its recorded selectivity ratio.
ASSAY OVERVIEW: Selectivity index, ratio of IC50 for HEK293T cells to MIC for Mycobacterium tuberculosis H37Rv ATCC 27294
Type: toxicity, cell-based, HEK-293T
CONDITION PARAMETERS: human, read-out: Selectivity Index
Number only, please.

Exercise: # get_value(readout='selectivity ratio', item= O=C(Cn1c(-c2ccccc2)cc(-c2ccccc2)c1-c1ccc(Br)cc1)Nc1nc2ccccc2s1 )
Solution: 4.51

Exercise: Given the molecule Cc1ccc(-c2c(-c3ccccc3)cc(-c3ccccc3)n2CC(=O)O)cc1 , what is its reported selectivity ratio?
Solution: 0.86

Exercise: Any idea what selectivity ratio was measured for O=C(Cn1c(-c2ccccc2)cc(-c2ccccc2)c1-c1ccco1)Nc1nc2ccccc2s1 ?
Solution: 3.8

Exercise: Param item = O=C(Cn1c(-c2ccccc2)cc(-c2ccco2)c1-c1ccco1)Nc1nc2ccccc2s1 ; retrieve measured selectivity ratio.
Solution: 1.7

Exercise: Can you look up the measured selectivity ratio of O=C(Cn1c(-c2ccccc2)cc(-c2ccccc2)c1-c1ccccc1)Nc1ccccn1 for me?
Solution: 6.86

Exercise: So what does the record say about selectivity ratio for CCc1nnc(NC(=O)Cn2c(-c3ccccc3)cc(-c3cccc4ccccc34)c2-c2ccco2)s1 ?
Solution: 16.1

Exercise: Which value of selectivity ratio has been reported for O=C(O)Cn1c(-c2ccccc2)cc(-c2ccccc2)c1-c1ccc(Cl)cc1 in the records?
Solution: 1.55

###

ASSAY OVERVIEW: Selectivity index, ratio of IC50 for HEK293T cells to MIC for Mycobacterium tuberculosis H37Rv ATCC 27294
Type: toxicity, cell-based, HEK-293T
CONDITION PARAMETERS: human, read-out: Selectivity Index
Exercise: for every item that follows, state its recorded selectivity ratio.
Lab note: record just the number, no unit beside it.

Exercise: Any idea what its selectivity ratio is? The compound is CCc1nnc(NC(=O)Cn2c(-c3ccccc3)cc(-c3ccccc3)c2-c2ccco2)s1
Solution: 1.81

Exercise: Reported selectivity ratio, compound CCc1nnc(NC(=O)Cn2c(-c3ccc4ccccc4c3)cc(-c3ccccc3)c2-c2ccco2)s1 : ____
Solution: 2.02

Exercise: So what's the measured selectivity ratio for this one? O=C(O)Cn1c(-c2ccccc2)cc(-c2ccccc2)c1-c1ccco1
Solution: 2.74

Exercise: Query: selectivity ratio; subject: CC(C)CC(C(=O)O)n1c(-c2ccccc2)cc(-c2ccccc2)c1-c1ccco1 (stereo not given)
Solution: 6.38

Exercise: I'd like to know its selectivity ratio. The compound in question is O=C(Cn1c(-c2ccccc2)cc(-c2ccccc2)c1-c1ccco1)Nc1ccccn1
Solution: 1.68

###

ASSAY OVERVIEW: Selectivity index, ratio of IC50 for HEK293T cells to MIC for Mycobacterium tuberculosis H37Rv ATCC 27294
Type: toxicity, cell-based, HEK-293T
CONDITION PARAMETERS: human, read-out: Selectivity Index
METRIC NAME: selectivity ratio
Answer with a bare number; do not write a unit.

Exercise: Which selectivity ratio is listed for O=C(Cn1c(-c2ccccc2)cc(-c2ccccc2)c1-c1ccc(Br)cc1)Nc1ccccn1 ?
Solution: 8.13

Exercise: May I ask what selectivity ratio has been recorded for O=C(Cn1c(-c2ccccc2)cc(-c2ccccc2)c1-c1ccccc1)Nc1nc2ccccc2s1 ?
Solution: 0.76

Exercise: If you can, please state the reported selectivity ratio value of O=C(O)Cn1c(-c2cccc3ccccc23)cc(-c2ccccc2)c1-c1ccco1 .
Solution: 1.57

Exercise: Field request: selectivity ratio | item: O=C(Cn1c(-c2ccccc2)cc(-c2ccccc2)c1-c1ccco1)NCc1ccccc1
Solution: 6.91

Exercise: // query selectivity ratio value for entry O=C(Cn1c(-c2ccccc2)cc(-c2ccccc2)c1-c1ccco1)NCCc1c[nH]c2ccccc12
Solution: 7.76

Exercise: # input compound: CCc1nnc(NC(=O)Cn2c(-c3ccccc3)cc(-c3ccco3)c2-c2ccco2)s1 ; wanted: its selectivity ratio
Solution: 3.55

Exercise: Could you tell me which selectivity ratio is on file for CCc1nnc(NC(=O)Cn2c(-c3ccccc3)cc(-c3ccccc3)c2-c2ccccc2)s1 ?
Solution: 3.71

Exercise: // returns reported selectivity ratio for input O=C(O)Cn1c(-c2ccccc2)cc(-c2ccccc2)c1-c1ccccc1
Solution: 1.47

Exercise: selectivity ratio for O=C(Cn1c(-c2ccccc2)cc(-c2cccc3ccccc23)c1-c1ccco1)Nc1nc2ccccc2s1 ?
Solution: 16.8

###

Kindly supply the reported inhibition at 72 h, 50 µM values for the records listed here.
ASSAY OVERVIEW: Cytotoxicity against HEK293T cells at 50 uM after 72 hrs by MTT assay
Assay type: cell-based, HEK-293T
CONDITION PARAMETERS: human
Write the answer as a number in %, unit excluded.

Exercise: Field request: inhibition at 72 h, 50 µM | item: O=C(Cn1c(-c2ccccc2)cc(-c2ccccc2)c1-c1ccccc1)Nc1ccccn1
Solution: 62.9

Exercise: Consider the molecule shown here: Cc1ccc(-c2c(-c3ccccc3)cc(-c3ccccc3)n2CC(=O)O)cc1 What is its recorded inhibition at 72 h, 50 µM?
Solution: 78.2

Exercise: // lookup inhibition at 72 h, 50 µM for O=C(Cn1c(-c2ccccc2)cc(-c2ccccc2)c1-c1ccc(Br)cc1)Nc1ccccn1
Solution: 75

Exercise: Suppose we examine the molecule O=C(Cn1c(-c2ccccc2)cc(-c2ccccc2)c1-c1ccco1)NCc1ccccc1 ; what inhibition at 72 h, 50 µM value has been reported?
Solution: 72.4

Exercise: Would you kindly share the measured inhibition at 72 h, 50 µM for CCc1nnc(NC(=O)Cn2c(-c3ccccc3)cc(-c3ccccc3)c2-c2ccccc2)s1 ?
Solution: 49.3

Exercise: Suppose we examine the molecule O=C(Cn1c(-c2ccccc2)cc(-c2ccco2)c1-c1ccco1)Nc1nc2ccccc2s1 ; what inhibition at 72 h, 50 µM value has been reported?
Solution: 65.1

Exercise: # get_value(readout='inhibition at 72 h, 50 µM', item= O=C(O)Cn1c(-c2ccccc2)cc(-c2ccccc2)c1-c1ccc(Cl)cc1 )
Solution: 37.4

Exercise: Which inhibition at 72 h, 50 µM value belongs to CCc1nnc(NC(=O)Cn2c(-c3ccccc3)cc(-c3ccccc3)c2-c2ccco2)s1 ?
Solution: 81

Exercise: Param item = CCc1nnc(NC(=O)Cn2c(-c3ccccc3)cc(-c3cccc4ccccc34)c2-c2ccco2)s1 ; retrieve measured inhibition at 72 h, 50 µM.
Solution: 59.7

Exercise: Would you mind telling me what inhibition at 72 h, 50 µM value was observed for O=C(O)Cn1c(-c2ccccc2)cc(-c2ccccc2)c1-c1ccco1 ?
Solution: 114

Exercise: Any idea what its inhibition at 72 h, 50 µM is? The molecule is O=C(O)Cn1c(-c2cccc3ccccc23)cc(-c2ccccc2)c1-c1ccco1
Solution: 79.5

Exercise: Which inhibition at 72 h, 50 µM value is on record for O=C(Cn1c(-c2ccccc2)cc(-c2ccccc2)c1-c1ccco1)Nc1ccccn1 ?
Solution: 69.3

Exercise: Reported inhibition at 72 h, 50 µM, molecule O=C(Cn1c(-c2ccc3ccccc3c2)cc(-c2ccccc2)c1-c1ccco1)Nc1nc2ccccc2s1 : ____
Solution: 38.3

Exercise: Dear colleague, I am looking for the recorded inhibition at 72 h, 50 µM of the following molecule: O=C(O)Cn1c(-c2ccccc2)cc(-c2ccccc2)c1-c1ccccc1
Solution: 97

Exercise: Name the recorded inhibition at 72 h, 50 µM for O=C(Cn1c(-c2ccccc2)cc(-c2ccccc2)c1-c1ccccc1)Nc1nc2ccccc2s1 .
Solution: 55

Exercise: Requested field: inhibition at 72 h, 50 µM. Item: CC(C)CC(C(=O)O)n1c(-c2ccccc2)cc(-c2ccccc2)c1-c1ccco1 (stereo unspecified)
Solution: 82.4
